For each entry below, report its Average infection value.
- Tested on: Botrytis cinerea
- assay_info: Protection of wounded apples against Botrytis cinerea (lesion diameter, percentage of protection)
- Type: in vivo
- settings: Table 10; salt + strain O 10^5; CaCl2 20 g/l, CG 2 g/l, CGt 1.805 g/l, TC 0.848 g/l, PC 0.964 g/l; 5 days
Answers are plain numbers.

compound	tgt	readout	number
O=C([O-])CC(O)(CC(=O)[O-])C(=O)[O-].[K+].[K+].[K+] [PC, potassium citrate]	Botrytis cinerea	Average infection	0.5

State the recorded Average infection for every item in the following list.
1. N[C@@H](CCC(=O)[O-])C(=O)[O-].[Ca+2] [CGt, calcium glutamate]
2. [Ca+2].[Cl-].[Cl-] [CaCl2, reference compound]
3. O=C([O-])CC(O)(CC(=O)[O-])C(=O)[O-].O=C([O-])CC(O)(CC(=O)[O-])C(=O)[O-].[Ca+2].[Ca+2].[Ca+2] [TC, tricalcium citrate]

Data returned:
1. 0.8
2. 0.3
3. 0.3

====

- Test system: Botrytis cinerea
- assay_info: Protection of wounded apples against Botrytis cinerea (lesion diameter, percentage of protection)
- Format: in vivo
- settings: Table 10; salt + strain O 10^5; CaCl2 20 g/l, CG 2 g/l, CGt 1.805 g/l, TC 0.848 g/l, PC 0.964 g/l; 5 days
readout: Efficiency %
Number plus unit, in that order.

Use the examples below as a reference point.
compound	result
O=C([O-])CC(O)(CC(=O)[O-])C(=O)[O-].[K+].[K+].[K+] [PC, potassium citrate]	66.4%
O=C([O-])CC(O)(CC(=O)[O-])C(=O)[O-].O=C([O-])CC(O)(CC(=O)[O-])C(=O)[O-].[Ca+2].[Ca+2].[Ca+2] [TC, tricalcium citrate]	78.9%
N[C@@H](CCC(=O)[O-])C(=O)[O-].[Ca+2] [CGt, calcium glutamate]	51.3%

Data request: Please supply the value of reported Efficiency % for the item [Ca+2].[Cl-].[Cl-] [CaCl2, reference compound]
Data returned: 82.4%
